- Tested on: HL-60(TB) leukemia
- test: NCI-60 one-dose screen, 48 h (100 = growth as untreated, 0 = no growth, -100 = all killed)
- condition-description: 10 µM unless noted
- Description: Growth inhibition of the HL-60(TB) human tumor cell line is measured as a screen for anti-cancer activity. Cells are grown in 96 well plates and exposed to the test compound for 48 hours. Compounds are tested at a single concentration, which is 10^-5 M for most compounds. The reported endpoint is percent growth (GI% or GIPRCNT), where numbers from 0 - 100% represent growth inhibition, and numbers from -100% - 0 represent cell death. For example, a value of 40 represents 60% growth inhibition. […]
This is part of a sample that, as a whole, favours compounds with a hit. Of some 83,000 tested, about 20% had one in any assay.
Hi all, reminder that labels come from growth, split as one (below -20%), two (-20% to below 80%), three (80% or more)

Recorded results for 6 compounds are shown here.
# compound, classification
measured = [
    ("Cc1cc(C(O)CN(C)C)cc2c1ccc1cc(C(C)C)ccc12 (centres undefined)", "one"),
    ("C#Cc1cccc(Nc2ncnc3cc(NC(=O)CCl)ccc23)c1", "one"),
    ("COc1cccc2cc(N(C)c3ncnc4ccccc34)ccc12", "one"),
    ("Cc1cc(NN=C(c2ccc(O)cc2)c2ccc(O)cc2)c([N+](=O)[O-])cc1[N+](=O)[O-]", "two"),
    ("COc1cc(C(=O)c2c(-c3ccccc3)oc3c(OC)cccc23)cc(OC)c1OC", "two"),
    ("O=C(/C=C/c1ccc(C(F)(F)F)cc1)Nc1ccc(C=C2c3ccccc3C(=O)c3ccccc32)cc1", "two"),
]

Attention now turns to another entry.
Asked: Band for the recorded growth of O=C(NO)c1ccc(Cn2c(=O)n(-c3ccccc3F)c(=O)c3ccccc32)cc1 ?
Given back: two

====

The entries below come with measured growth values attached.
- System: 786-0 renal
- test: NCI-60 one-dose screen, 48 h (100 = growth as untreated, 0 = no growth, -100 = all killed)
- condition-description: 10 µM unless noted
About 83,000 compounds went through this panel and 20% of them were active in at least one assay; those are over-represented in the sample as a whole. Calls of active or inactive are those of the source. How the source made its calls: active means growth percent below 10; inactive means the rest.

Example entries and their recorded answers appear below.
# compound, growth
rows = [
    ("CCC[CH2][Sn]1([CH2]CCC)[O]C(=O)c2cccc([N+](=O)[O-])c2C(=O)[O]1", "-97.3% (active)"),
    ("COC[CH2][Hg][C]#[C][Hg][CH2]COC", "41.7% (inactive)"),
    ("COc1ccc(C(c2ccc(OC)cc2)C(Cl)(Cl)Cl)cc1", "74.4% (inactive)"),
    ("CC12CCC3C(CC=C4CC(O)CCC43C)C1C/C(=C\\N1CCOCC1)C2=O (stereo not drawn)", "104% (inactive)"),
    ("NC(Cc1ccc2c(c1)OCO2)c1ccc2c(c1)OCO2 (stereo not drawn)", "98.5% (inactive)"),
]

Asked: Sample OC1CCCCC1N1CCC(c2ccccc2)CC1 (stereo not drawn) — what was its growth?
Given back: 93.1% (inactive)

Asked: Sample CC1=C(SCCC(=O)OCC(=O)NCCC[Te]c2ccccc2)C(=O)c2ccccc2C1=O — what was its growth?
Given back: 23.2% (inactive)

Asked: Sample CC[C@H](C)[C@H](NC(=O)Nc1ccccc1)C(=O)N(C)[C@H](C[C@@H](OC(C)=O)c1nc(C(=O)N[C@@H](Cc2ccccc2)C[C@H](C)C(=O)OC)cs1)C(C)C — what was its growth?
Given back: 18.1% (inactive)

Asked: Sample Nc1cccc(CC(=O)Nc2ccc(S(=O)(=O)F)cc2)c1 — what was its growth?
Given back: 96.9% (inactive)

Asked: Sample CC(C)N=C(NC(C)C)N1CC1 — what was its growth?
Given back: 116% (inactive)

Asked: Sample CNC(C)Cc1ccccc1 (stereo not drawn) (tested in a mixture with another compound) — what was its growth?
Given back: 102% (inactive)

Asked: Sample COc1ccc(/C=C\c2cc(OC)c(OC)c(OC)c2)cc1N/C=C\C(=O)c1c[nH]c2ccccc12 — what was its growth?
Given back: 20.9% (inactive)

Asked: Sample CC(CC(C#N)(c1ccccc1)c1ccccc1)N1CCOCC1 (stereo not drawn) — what was its growth?
Given back: 112% (inactive)
